Test system: Staphylococcus aureus
ASSAY: Antibacterial activity against Staphylococcus aureus ATCC 25923 assessed as reduction in microbial growth by two fold microdilution method
Type: functional
Each entry below lists one item and its recorded MIC value.
MEASUREMENT LABEL: MIC (µg/mL)

>>> result("CC(C)(C)O/N=C(\\CN1CCN(c2c(F)cc3c(=O)c(C(=O)O)cn(C4CC4)c3c2Cl)CC1)c1nccs1")
0.5
>>> result("O=C(O)c1cn(C2CC2)c2cc(N3CCN(C/C(=N\\OCc4ccccc4)c4nccs4)CC3)c(F)cc2c1=O")
1
>>> result("CC(C)(C)O/N=C(\\CN1CCN(c2cc3c(cc2F)c(=O)c(C(=O)O)cn3C2CC2)CC1)c1nccs1")
1
>>> result("O=C(CN1CCN(c2cc3c(cc2F)c(=O)c(C(=O)O)cn3C2CC2)CC1)c1nccs1")
4
>>> result("COC(=O)CO/N=C(\\CN1CCN(c2cc3c(cc2F)c(=O)c(C(=O)O)cn3C2CC2)CC1)c1nccs1")
0.25
>>> result("CCn1cc(C(=O)O)c(=O)c2cc(F)c(N3CCNCC3)cc21 [NORFLOXACIN]")
2
>>> result("CCn1cc(C(=O)O)c(=O)c2cc(F)c(N3CCN(CC(=O)c4nccs4)CC3)cc21")
2
>>> result("CCn1cc(C(=O)O)c(=O)c2cc(F)c(N3CCN(C/C(=N\\OC)c4nccs4)CC3)cc21")
0.5
>>> result("CCn1cc(C(=O)O)c(=O)c2cc(F)c(N3CCN(C/C(=N\\OCc4ccccc4)c4nccs4)CC3)cc21")
0.25
>>> result("COC(=O)CO/N=C(\\CN1CCN(c2c(F)cc3c(=O)c(C(=O)O)cn(C4CC4)c3c2Cl)CC1)c1nccs1")
0.25
>>> result("O=C(O)c1cn(C2CC2)c2c(Cl)c(N3CCN(C/C(=N\\OCc4ccccc4)c4nccs4)CC3)c(F)cc2c1=O")
1
>>> result("CCO/N=C(\\CN1CCN(c2cc3c(cc2F)c(=O)c(C(=O)O)cn3C2CC2)CC1)c1nccs1")
0.5
>>> result("CCO/N=C(\\CN1CCN(c2cc3c(cc2F)c(=O)c(C(=O)O)cn3CC)CC1)c1nccs1")
0.5
>>> result("O=C(O)c1cn(C2CC2)c2cc(N3CCNCC3)c(F)cc2c1=O [CIPROFLOXACIN]")
2
